target: hmGluR4 (Homo sapiens, UniProt Q14833); construct: host or cells: HEK293T; assay: HEK-293 mGluR4 cells cAMP assay with EC20 L-Glutamate (HTRF); assay type: cell-based; conditions: positive allosteric activity at EC20 L-Glutamate, 10 μM Forskolin, HEK293T mGluR4 cells, cAMP HTRF; read-out: hrmGluR4/HEK293T-hmGluR4 (EC50)
Sequence (Q14833 33-912): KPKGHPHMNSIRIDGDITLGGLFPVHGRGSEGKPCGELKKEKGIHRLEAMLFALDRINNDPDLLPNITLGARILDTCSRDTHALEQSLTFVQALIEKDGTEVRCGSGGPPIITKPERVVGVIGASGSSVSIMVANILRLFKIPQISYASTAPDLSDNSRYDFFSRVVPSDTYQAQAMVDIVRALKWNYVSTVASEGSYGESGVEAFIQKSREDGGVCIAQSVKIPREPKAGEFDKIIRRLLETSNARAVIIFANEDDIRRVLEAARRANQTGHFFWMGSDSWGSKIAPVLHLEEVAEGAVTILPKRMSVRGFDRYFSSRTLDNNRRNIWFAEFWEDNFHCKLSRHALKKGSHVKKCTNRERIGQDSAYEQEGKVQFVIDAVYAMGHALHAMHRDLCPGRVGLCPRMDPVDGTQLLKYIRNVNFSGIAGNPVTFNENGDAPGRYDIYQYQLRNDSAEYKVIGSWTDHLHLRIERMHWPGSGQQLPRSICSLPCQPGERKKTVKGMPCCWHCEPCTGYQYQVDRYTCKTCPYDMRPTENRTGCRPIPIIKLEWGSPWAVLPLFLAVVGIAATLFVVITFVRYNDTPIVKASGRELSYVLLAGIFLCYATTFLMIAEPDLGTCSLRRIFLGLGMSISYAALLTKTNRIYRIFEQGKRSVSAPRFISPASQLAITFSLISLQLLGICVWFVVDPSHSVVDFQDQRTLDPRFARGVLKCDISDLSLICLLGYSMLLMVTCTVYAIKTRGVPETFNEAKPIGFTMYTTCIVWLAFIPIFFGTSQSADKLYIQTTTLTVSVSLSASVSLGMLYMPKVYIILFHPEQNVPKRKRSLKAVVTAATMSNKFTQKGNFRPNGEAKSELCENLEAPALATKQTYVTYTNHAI
pEC50: −log10 of the molar value.
assay.metric: pEC50

[
  {
    "molecule": "O=C1c2ccc(F)cc2NC2(CCN(Cc3ccc(F)c(F)c3)CC2)N1c1ccc(OC(F)(F)F)cc1",
    "pEC50": "5.00 to 6.00"
  },
  {
    "molecule": "COCCOc1ccc2c(c1)NC1(CCN(Cc3ccc(F)c(F)c3)CC1)N(c1ccc(OC(F)(F)F)cc1)C2=O",
    "pEC50": "5.00 to 6.00"
  },
  {
    "molecule": "COC(=O)c1ccc2c(c1)NC1(CCN(Cc3ccc(F)c(F)c3)CC1)N(c1ccc(OC)cc1)C2=O",
    "pEC50": "> 6.00"
  }
]

Proceed to the following item.
Query: Tell me the measured pEC50 of COc1ccc(N2C(=O)c3cc(O)ccc3NC23CCN(Cc2ccc(F)c(F)c2)CC3)cc1 , please.
Result: 5.00 to 6.00
